tested on: SK-MEL-28; assay: NCI tumour cell line growth inhibition, 48 h
Active and inactive are the calls of the source. No stated cut-off is given here; in the data, active = GI50 up to about 1.1 µM and inactive = higher.
Return exactly one item of yes = active, no = inactive

Field: example entries. Status: answers known.
COc1ccc(C(O)c2cc(OC)c(OC)c(OC)c2)cc1 (stereo not given) ... no
CN(C)C1=Nc2ccccc2C(=S)N2CSCC12 (stereo not given) ... no
Cc1c(C)c2ccc(OC(C)C(=O)O)cc2oc1=O (stereo not given) ... no
C=C(C)C1CC2(C)C(C)CC(OC(=O)/C(C)=C\C)CC2C(OC(=O)/C(C)=C\C)C1O (stereo not given) ... no
CCCCCCNCCCNc1c2ccccc2nc2cccc([N+](=O)[O-])c12 ... yes

What did the test return for Oc1ccc(-c2cn3cc(C(F)(F)F)ccc3n2)cc1 ?
no

For COc1ccc(CCc2cc(OC)c(OC)c(OC)c2)cc1 , what call appears in the results of this test?
yes

Hello, I am checking results. What call was entered for CC1OC(OC2C(OC(=O)[C@]34CCC(C)(C)C[C@H]3C3=CC[C@@H]5[C@@]6(C)CC[C@H](OC7OC(C(=O)O)C(O)C(O)C7O)C(C)(C)[C@@H]6CC[C@@]5(C)[C@]3(C)C[C@H]4O)OCC(O)C2O)C(O)C(O)C1OC1OCC(OC2OCC(O)C(O)C2O)C(O)C1O (stereo not given in full) ?
no

State the result this test recorded for CC(C)(C)CC(C)(C)c1cc2c(O)c(c1)Cc1cc(C(C)(C)CC(C)(C)C)cc(c1O)Cc1cc(C(C)(C)CC(C)(C)C)cc(c1O)Cc1cc(C(C)(C)CC(C)(C)C)cc(c1O)Cc1cc(C(C)(C)CC(C)(C)C)cc(c1O)C2 .
no

GET /call?item= Cc1ccc(CC2(C(=O)O)Cc3ccc(C)cc3C2)cc1 (stereo not given) returns the recorded outcome of this test.
no
